System: LN-18 (glioma)
Assay Overview: Cell viability IC50 (CellTiter-Glo), LN-18
Assay type: cell-based
Experimental Parameters: Homo sapiens, LN-18, 72 hours
Observation Type: pIC50
Give only the number. pIC50 is defined as minus log10 of concentration in molar units.

get_value(item= CN1CC2CCC(C1)N2Cc1ccc(Nc2ncc(Cl)c(Nc3ccccc3S(=O)(=O)N(C)C)n2)cc1 , readout=pIC50) returns 8.11

---

Would you mind telling me the reported pIC50 of each entry?
Test system: NCI-H1650 cells
Assay Overview: Cell viability IC50 (MTT), Gefitinib- and Osimertinib-resistant NCI-H1650 cells
Experimental Parameters: Homo sapiens, NCI-H1650, 72 h, read-out: cell viability IC50
Give only the number. pIC50 is defined as minus log10 of concentration in molar units.

get_value(item= CN1C2CCC1CN(Cc1ccc(Nc3ncc(Cl)c(Nc4ccccc4S(=O)(=O)N(C)C)n3)cc1)C2 [Compound 9] , readout=pIC50) returns 6.77

get_value(item= CN1CC2CCC(C1)N2Cc1ccc(Nc2ncc(Cl)c(Nc3ccccc3S(=O)(=O)N(C)C)n2)cc1 [Compound 8] , readout=pIC50) returns 7.08

get_value(item= CN1CCN(Cc2ccc(Nc3ncc(Cl)c(Nc4ccccc4S(=O)(=O)N(C)C)n3)cn2)CC1 [Compound 2] , readout=pIC50) returns 6.33

get_value(item= CNCCN1CCc2cc(Nc3ncc(Cl)c(Nc4ccccc4S(=O)(=O)N(C)C)n3)ccc2C1 [Compound 12] , readout=pIC50) returns 7.12

Source listed as patent US20240360145A1.
